Recorded values, source paper PMC8037310.

Test system: E. coli EQASmcr-3 (EQAS 2017 2013-SQ352)
Format: cell-based, Escherichia coli
assay.conditions: rifampicin concentration in the combination giving the lowest FICi; E. coli EQASmcr-3
Peptide text beside a SMILES is read from it.
readout.kind: MSCrif
Express the reported value numerically, then name its unit.

// assay E. coli EQASmcr-3 (EQAS 2017 2013-SQ352), entry CC[C@H](C)[C@H](NC(=O)[C@@H](NC(=O)[C@H](CCCCN)NC(=O)[C@H](CCC(N)=O)NC(=O)[C@@H](NC(=O)[C@H](Cc1c[nH]c2ccccc12)NC(=O)[C@H](CCCCN)NC(=O)[C@H](CCCCN)NC(=O)[C@H](CC(C)C)NC(=O)[C@H](C)NC(=O)[C@H](Cc1ccccc1)NC(=O)[C@@H](N)C(C)C)[C@@H](C)CC)C(C)C)C(N)=O [peptide 10] (H-VFALKKWIQKVI-NH2) , MSCrif value = 0.125 µg/mL

----------
Tested on: E. coli BW25113
protocol.description: microbe, parasite or virus in culture
Type: cell-based, Escherichia coli
assay.conditions: synergist alone; E. coli BW25113, from checkerboard with novobiocin
Peptide text beside a SMILES is read from it.
Form field: MICpeptide (one value per entry).
Express the reported value numerically, then name its unit.

Observe how each entry below is paired with its result.
CC[C@H](C)[C@H](NC(=O)[C@@H](NC(=O)[C@H](CCCCN)NC(=O)[C@H](CCC(N)=O)NC(=O)[C@@H](NC(=O)[C@H](Cc1c[nH]c2ccccc12)NC(=O)[C@H](CCCCN)NC(=O)[C@H](CCCCN)NC(=O)[C@H](CC(C)C)NC(=O)[C@H](CCCNC(=N)N)NC(=O)[C@H](Cc1ccccc1)NC(=O)[C@@H](N)C(C)C)[C@@H](C)CC)C(C)C)C(N)=O [peptide 6] (H-VFRLKKWIQKVI-NH2) = 12.5 µg/mL
CC[C@H](C)[C@H](NC(=O)[C@@H](NC(=O)[C@H](CCCCN)NC(=O)[C@H](CCC(N)=O)NC(=O)[C@@H](NC(=O)[C@H](Cc1c[nH]c2ccccc12)NC(=O)[C@H](CCCCN)NC(=O)[C@H](CCCCN)NC(=O)[C@H](CC(C)C)NC(=O)[C@H](C)NC(=O)[C@H](Cc1ccccc1)NC(=O)[C@@H](N)C(C)C)[C@@H](C)CC)C(C)C)C(N)=O [peptide 10] (H-VFALKKWIQKVI-NH2) = 100 µg/mL

We now examine a further compound.
The reported value for CC[C@H](C)[C@H](NC(=O)[C@H](Cc1c[nH]c2ccccc12)NC(=O)[C@H](CCCCN)NC(=O)[C@H](CCCCN)NC(=O)[C@H](CC(C)C)NC(=O)[C@H](CCCNC(=N)N)NC(=O)[C@H](Cc1ccccc1)NC(=O)[C@@H](N)C(C)C)C(=O)N[C@@H](CCC(N)=O)C(=O)N[C@@H](CCCCN)C(=O)N[C@H](C(=O)N[C@@H](C)C(N)=O)C(C)C [peptide 19] (H-VFRLKKWIQKVA-NH2) in terms of MICpeptide is 200 µg/mL

----------
Tested on: E. coli BW25113
protocol.description: microbe, parasite or virus in culture
Assay type: cell-based, Escherichia coli
assay.conditions: synergist alone; E. coli BW25113, from checkerboard with novobiocin
Bridge positions count the residues as written; N and C are the ends. Square brackets hold non-standard residues; d marks the D form. Peptide text beside a SMILES is read from it. Dab = NCC[C@H](N)C(=O)O
readout.kind: MICpeptide

CC[C@H](C)[C@H](NC(=O)[C@@H](NC(=O)[C@H](CCCCN)NC(=O)[C@H](CCC(N)=O)NC(=O)[C@@H](NC(=O)[C@H](C)NC(=O)[C@H](CCCCN)NC(=O)[C@H](CCCCN)NC(=O)[C@H](CC(C)C)NC(=O)[C@H](CCCNC(=N)N)NC(=O)[C@H](Cc1ccccc1)NC(=O)[C@@H](N)C(C)C)[C@@H](C)CC)C(C)C)C(N)=O [peptide 14] (H-VFRLKKAIQKVI-NH2) = > 200 µg/mL

The reported value for CC(C)C[C@@H]1NC(=O)[C@@H](Cc2ccccc2)NC(=O)[C@H](CCN)NC(=O)[C@@H](NC(=O)[C@H](CCN)NC(=O)[C@@H](N)[C@@H](C)O)CCNC(=O)[C@H]([C@@H](C)O)NC(=O)[C@H](CCN)NC(=O)[C@H](CCN)NC1=O [PMBN, polymyxin B nonapeptide, reference compound] (H-T[Dab][Dab][Dab][dF]L[Dab][Dab]T; lactam 3-C (inferred); N-terminus assumed) in terms of MICpeptide is > 200 µg/mL

----------
Test system: E. coli BW25113
protocol.description: Checkerboard assay with erythromycin
Type: cell-based, Escherichia coli
assay.conditions: erythromycin concentration in the combination with the synergist giving the lowest FICi; E. coli BW25113
Procedure: All peptides were screened for antimicrobial activity against E. coli BW25113, E. coli ATCC25922, and E. coli W3110. […] Two 96-well plates were required per compound. […] After incubation for 20 h at 37 °C while shaking, the breathable seals were removed and the density of the bacterial suspensions measured at 600 nm (OD600) using a Tecan Spark plate reader. […] The FICi was calculated using Equation (1) with a FICi ≤ 0.5 indicating synergy. […]
Peptide text beside a SMILES is read from it.
readout.kind: MSCery (µg/mL)
Enter your answer as a number in µg/mL; do not include the unit.

// assay E. coli BW25113, entry CC[C@H](C)[C@H](N)C(=O)N[C@H](C(=O)N[C@@H](CCCCN)C(=O)N[C@@H](CCC(N)=O)C(=O)N[C@H](C(=O)N[C@@H](Cc1c[nH]c2ccccc12)C(=O)N[C@@H](CCCCN)C(=O)N[C@@H](CCCCN)C(=O)N[C@@H](CC(C)C)C(=O)N[C@@H](CCCNC(=N)N)C(=O)N[C@@H](Cc1ccccc1)C(=O)N[C@H](C(N)=O)C(C)C)[C@@H](C)CC)C(C)C [peptide 21] (H-IVKQIWKKLRFV-NH2) , MSCery value = 25

// assay E. coli BW25113, entry CC[C@H](C)[C@H](NC(=O)[C@H](Cc1c[nH]c2ccccc12)NC(=O)[C@H](CCCCN)NC(=O)[C@H](CCCCN)NC(=O)[C@H](CC(C)C)NC(=O)[C@H](CCCNC(=N)N)NC(=O)[C@H](Cc1ccccc1)NC(=O)[C@@H](N)C(C)C)C(=O)N[C@@H](CCC(N)=O)C(=O)N[C@@H](CCCCN)C(=O)N[C@H](C(=O)N[C@@H](C)C(N)=O)C(C)C [peptide 19] (H-VFRLKKWIQKVA-NH2) , MSCery value = 12.5

// assay E. coli BW25113, entry CC[C@H](C)[C@H](NC(=O)[C@H](C)NC(=O)[C@H](CCCCN)NC(=O)[C@H](CCC(N)=O)NC(=O)[C@@H](NC(=O)[C@H](Cc1c[nH]c2ccccc12)NC(=O)[C@H](CCCCN)NC(=O)[C@H](CCCCN)NC(=O)[C@H](CC(C)C)NC(=O)[C@H](CCCNC(=N)N)NC(=O)[C@H](Cc1ccccc1)NC(=O)[C@@H](N)C(C)C)[C@@H](C)CC)C(N)=O [compound 18] (H-VFRLKKWIQKAI-NH2) , MSCery value = 12.5

----------
Form field: MSCrif (one value per entry).
Test system: K. pneumoniae ATCC13883
protocol.description: Checkerboard assay with rifampicin
Format: cell-based, Klebsiella pneumoniae
assay.conditions: rifampicin concentration in the combination giving the lowest FICi; K. pneumoniae ATCC13883
Peptide text beside a SMILES is read from it.
Enter your answer as a number in µg/mL; do not include the unit.

CC[C@H](C)[C@H](NC(=O)[C@@H](NC(=O)[C@H](CCCCN)NC(=O)[C@H](CCC(N)=O)NC(=O)[C@@H](NC(=O)[C@H](Cc1c[nH]c2ccccc12)NC(=O)[C@H](CCCCN)NC(=O)[C@H](CCCCN)NC(=O)[C@H](CC(C)C)NC(=O)[C@H](CCCNC(=N)N)NC(=O)[C@H](Cc1ccccc1)NC(=O)[C@@H](N)C(C)C)[C@@H](C)CC)C(C)C)C(N)=O [peptide 6] (H-VFRLKKWIQKVI-NH2) = 1
CC[C@H](C)[C@H](NC(=O)[C@@H](NC(=O)[C@H](CCCCN)NC(=O)[C@H](CCC(N)=O)NC(=O)[C@@H](NC(=O)[C@H](C)NC(=O)[C@H](CCCCN)NC(=O)[C@H](CCCCN)NC(=O)[C@H](CC(C)C)NC(=O)[C@H](CCCNC(=N)N)NC(=O)[C@H](Cc1ccccc1)NC(=O)[C@@H](N)C(C)C)[C@@H](C)CC)C(C)C)C(N)=O [peptide 14] (H-VFRLKKAIQKVI-NH2) = 0.25
CC[C@H](C)[C@H](NC(=O)[C@H](Cc1c[nH]c2ccccc12)NC(=O)[C@H](CCCCN)NC(=O)[C@H](CCCCN)NC(=O)[C@H](CC(C)C)NC(=O)[C@H](CCCNC(=N)N)NC(=O)[C@H](Cc1ccccc1)NC(=O)[C@@H](N)C(C)C)C(=O)N[C@@H](CCC(N)=O)C(=O)N[C@@H](CCCCN)C(=O)N[C@H](C(=O)N[C@@H](C)C(N)=O)C(C)C [peptide 19] (H-VFRLKKWIQKVA-NH2) = 0.25

// assay K. pneumoniae ATCC13883, entry CC[C@H](C)[C@H](NC(=O)[C@@H](NC(=O)[C@H](CCCCN)NC(=O)[C@H](CCC(N)=O)NC(=O)[C@@H](NC(=O)[C@H](Cc1c[nH]c2ccccc12)NC(=O)[C@H](CCCCN)NC(=O)[C@H](CCCCN)NC(=O)[C@H](CC(C)C)NC(=O)[C@H](C)NC(=O)[C@H](Cc1ccccc1)NC(=O)[C@@H](N)C(C)C)[C@@H](C)CC)C(C)C)C(N)=O [peptide 10] (H-VFALKKWIQKVI-NH2) , MSCrif value = 1
